The measured values listed here are drawn from PubChem BioAssay.

The reader will find reported NADPH fluorescence slope values listed item by item below.
Target Entity: Voltage-gated potassium channel subunit beta-2 (Rattus norvegicus)
Test Protocol: enhancers of rat Kvbeta2 NADPH turnover – biochemical, NADPH fluorescence, primary screen (AID 623);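 also: fluorescence intensity change per second fitted from 20 to 320 s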
Run Parameters: Recombinant KvBeta, NADPH fluorescence decrease slope, 10 min; at 10 µM; active compounds read low
Lab note: write the figure by itself, no unit.

Worked examples, 3 molecules total:
COc1ccc(OC)c(CNC(=O)CCN2C(=O)COc3ccccc32)c1	-6e-05
COc1ccc(OC)c(C2=NOC(C(=O)NCCN3CCOCC3)C2)c1 (stereo unspecified)	3.7e-06
CN(C)CCSc1nnc2sc3ccccc3n12	-5.9e-05

Which NADPH fluorescence slope is listed for Cc1cc(-c2ccccc2)c2c3c(cn2n1)c(=O)n(C)c(=O)n3C ?
-1.7e-06

Query: NADPH fluorescence slope; subject: COC(=O)c1sc(S(=O)(=O)Nc2ccc3cn[nH]c3c2)c(C(=O)OC)c1C
5.3e-06

Give its NADPH fluorescence slope value. Item: Cc1ccc(CNC(=O)CCCn2c(=O)c3ccccc3n(CC(=O)NCc3ccco3)c2=O)cc1
-0.000209

---

Test Protocol: blockers of RIG-like receptor reporter activation – cell-based, Sendai virus stimulus, luciferase, 10K MLSCN set, TLR/RLR signaling modifier project, primary screen (AID 602276);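 also: firefly luciferase from ISG56 promoter only with Renilla not read in this screen; 0% = Sendai virus plus DMSO and 100% = medium plus DMSO without virus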
Run Parameters: HEK293 RL24 IRF3 luciferase reporter, at 10 µM, active compounds read high
Items are presented alongside their recorded inhibition.
Number in %, nothing else.

CN1CCN(CCCNC(=O)C2CC(=O)N(C3CCCCC3)C2)CC1 (stereo unspecified)	14.4
CCOC(=O)c1cc2oc(C)cc2n1CC(=O)OC1CCCCC1	1.83
Cc1nnc(C)c2c(C)n(-c3ccc(Br)cc3)c(C)c12	18
CCn1c(=N)n(CC(=O)C23CC4CC(CC(C4)C2)C3)c2ccccc21	1.98
O=C(CSc1nc2c(sc3ccccc32)c(=O)n1Cc1ccco1)NCC1CCCO1 (stereo unspecified)	19.7
O=C(/C=N/O)Nc1cccnc1	21.9

Now look at this entry.
What measured inhibition goes with CN(C)S(=O)(=O)n1cnc(-c2ccccc2)c1-c1ccccc1 ?
11.2

---

Test Protocol: blockers of RIG-like receptor reporter activation – cell-based, Sendai virus stimulus, luciferase, 10K MLSCN set, TLR/RLR signaling modifier project, primary screen (AID 602276);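 also: firefly luciferase from ISG56 promoter only with Renilla not read in this screen; 0% = Sendai virus plus DMSO and 100% = medium plus DMSO without virus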
Run Parameters: HEK293 RL24 IRF3 luciferase reporter, at 10 µM, active compounds read high
Measured Property: inhibition (%)
Numeric only. Scale: %

Would you please look over these solved cases?
Cc1ccc(C(=O)Nc2ccc3c(c2)OCO3)o1	-40.3
O=C(OCc1nnc(-c2ccccc2)o1)C1=COCCO1	-2.24
CC(NC(=O)c1ccccc1NC(=O)c1ccco1)C(=O)O (stereo unspecified)	23.6
Nc1nc(C(=O)N2CCOCC2)nn1S(=O)(=O)c1ccc(Cl)cc1	11
COc1cccc(-c2cc(C(=O)Nc3cc(C)n(Cc4ccc(Cl)cc4)n3)no2)c1	18.7
O=C(CCn1c(=O)sc2ccccc21)Nc1cccnc1	8.62
CCCNS(=O)(=O)c1ccc(OCC(=O)Nc2ccccc2F)cc1	19.7
CC(=O)N1CCc2cc(S(=O)(=O)CCC(=O)N3CCN(C(=O)c4ccco4)CC3)ccc21	12.3
O=C1CCC(=O)N1OCCCCOc1ccccc1	15.8
COc1ccc(-c2nn(-c3ccccc3)cc2/C=N/n2cnnc2)cc1OC	1.15

Fill in the blank: the reported inhibition of CCCCCCNS(=O)(=O)c1ccc(Cl)s1 is ____.
19.6
